Test: log kW IAM (IAM.PC.DD2 column) and derived Δlog kW IAM polarity
Format: physicochemical
Conditions: log kW IAM – clog kW IAM (clog = 0.92*BRlogD – 1.03)
property: Δlog kW^IAM

Study these solved cases before continuing.
[[record]]
structure_smiles_string = "Cc1ncsc1-c1ccc([C@H](C[C@H](C)CN2CCC(c3ccc4c(c3)n(C3CCCC3)c3nc(=O)c5c(Br)cccc5n43)CC2)NC(=O)[C@@H]2C[C@@H](O)CN2C(=O)[C@@H](NC(=O)C2(F)CC2)C(C)(C)C)cc1"
measurement = 0.21

[[record]]
structure_smiles_string = "Cc1ncsc1-c1ccc([C@H](COCCN2CCC(c3ccc4c(c3)n(C3CCCC3)c3nc(=O)c5c(Br)cccc5n43)CC2)NC(=O)[C@@H]2C[C@@H](O)CN2C(=O)[C@@H](NC(=O)C2(F)CC2)C(C)(C)C)cc1"
measurement = 0.61

[[record]]
structure_smiles_string = "Cc1ncsc1-c1ccc([C@H](CCCCCN2CCC(c3ccc4c(c3)n(C3CCCC3)c3nc(=O)c5c(Br)cccc5n43)CC2)NC(=O)[C@@H]2C[C@@H](O)CN2C(=O)[C@@H](NC(=O)C2(F)CC2)C(C)(C)C)cc1"
measurement = 1.77

[[record]]
structure_smiles_string = "Cc1ncsc1-c1ccc([C@H](CO[C@H](C)CN2CCC(c3ccc4c(c3)n(C3CCCC3)c3nc(=O)c5c(Br)cccc5n43)CC2)NC(=O)[C@@H]2C[C@@H](O)CN2C(=O)[C@@H](NC(=O)C2(F)CC2)C(C)(C)C)cc1"
measurement = 0.57

[[record]]
structure_smiles_string = "Cc1ncsc1-c1ccc([C@H](CCCN2CCC(c3ccc4c(c3)n(C3CCCC3)c3nc(=O)c5c(Br)cccc5n43)CC2)NC(=O)[C@@H]2C[C@@H](O)CN2C(=O)[C@@H](NC(=O)C2(F)CC2)C(C)(C)C)cc1"
measurement = 0.93

[[record]]
structure_smiles_string = "Cc1ncsc1-c1ccc([C@H](CC[C@H](C)CCN2CCC(c3ccc4c(c3)n(C3CCCC3)c3nc(=O)c5c(Br)cccc5n43)CC2)NC(=O)[C@@H]2C[C@@H](O)CN2C(=O)[C@@H](NC(=O)C2(F)CC2)C(C)(C)C)cc1"
measurement = 0.85


P: Cc1ncsc1-c1ccc([C@H](C[C@@H](C)CN2CCC(c3ccc4c(c3)n(C3CCCC3)c3nc(=O)c5c(Br)cccc5n43)CC2)NC(=O)[C@@H]2C[C@@H](O)CN2C(=O)[C@@H](NC(=O)C2(F)CC2)C(C)(C)C)cc1
Q: Cc1ncsc1-c1ccc([C@H](CC[C@@H](C)CCN2CCC(c3ccc4c(c3)n(C3CCCC3)c3nc(=O)c5c(Br)cccc5n43)CC2)NC(=O)[C@@H]2C[C@@H](O)CN2C(=O)[C@@H](NC(=O)C2(F)CC2)C(C)(C)C)cc1
R: Cc1ncsc1-c1ccc([C@@H](CC[C@@H](C)CCN2CCC(c3ccc4c(c3)n(C3CCCC3)c3nc(=O)c5c(Br)cccc5n43)CC2)NC(=O)[C@@H]2C[C@@H](O)CN2C(=O)[C@@H](NC(=O)C2(F)CC2)C(C)(C)C)cc1
S: Cc1ncsc1-c1ccc([C@H](CO[C@@H](C)CN2CCC(c3ccc4c(c3)n(C3CCCC3)c3nc(=O)c5c(Br)cccc5n43)CC2)NC(=O)[C@@H]2C[C@@H](O)CN2C(=O)[C@@H](NC(=O)C2(F)CC2)C(C)(C)C)cc1
Lookup: List these items ordered by Δlog kW^IAM, big to small. In plain terms: list the labels in the order you were asked to.
Found: R, Q, S, P

Values from paper PMC12362582
